src = patent US8895585B2

# Measured target: glutathione S-transferase (GST)-fused full-length human Syk protein (Homo sapiens, UniProt P43405)
# Construct: (GST)-fused full-length human Syk protein; GST (glutathione S-transferase); purchased Carna Biosciences
# Test protocol: Syk enzyme assay
# Format: biochemical
# Condition context: Syk enzyme assay, Test Example 1; read-out: IC50 of Syk-inhibitory activity
Assay metric: IC50

Recorded IC50, per entry:
>  <Compound>
NC(=O)c1cc(F)c(N[C@@H]2CCCC[C@@H]2N)nc1Nc1ccc2[nH]c(C(=O)NCc3ccccc3)cc2c1 (relative stereo)

>  <IC50>
< 0.01 µM

$$$$
>  <Compound>
COc1ccc(-c2cc(Nc3nc(N[C@@H](CN)CC(C)C)c(F)cc3C(N)=O)ccn2)cc1

>  <IC50>
< 0.01 µM

$$$$
>  <Compound>
CCC(Nc1nc(Nc2ccc3ncccc3c2)c(C(N)=O)cc1F)[C@@H](N)CC (stereo partly shown)

>  <IC50>
0.01 to 0.05 µM

$$$$

Pending compound:
The compound CCC[C@@H](Nc1nc(Nc2ccc3cccnc3c2)c(C(N)=O)cc1F)[C@H](C)N showed IC50 equal to < 0.01 µM

---

# Tested on: THP-1 cells
# Test protocol: TNFα generation assay
# Type: cell-based, human
# Condition context: Homo sapiens, THP-1, THP-1 cells; Table 22; read-out: IC50 in TNFα generation assay
pIC50: −log10 of the molar value.
Listed below: pIC50 values for each entry.

Recorded pIC50, per entry:
>  <Compound>
CCC[C@@H](Nc1nc(Nc2cnc3cc(OCCOC)ccc3c2)c(C(N)=O)cc1F)[C@H](C)N [Example 006-238]

>  <pIC50>
> 7.19

$$$$
>  <Compound>
Cc1nn(CC(F)F)c2ccc(Nc3nc(N[C@H](CC4CC4)[C@H](C)N)c(F)cc3C(N)=O)cc12 [Example 006-445]

>  <pIC50>
6.89 to 7.19

$$$$
>  <Compound>
CC[C@@H](Nc1nc(Nc2ccc3c(c2)c(C)nn3CC(F)F)c(C(N)=O)cc1F)[C@H](C)N [Example 006-526]

>  <pIC50>
> 7.19

$$$$
>  <Compound>
Cc1cc(Nc2nc(N[C@@H]3CCCC[C@@H]3N)c(F)cc2C(N)=O)cnc1-n1ccnn1 [Example 006-501]

>  <pIC50>
6.70 to 6.89

$$$$
>  <Compound>
NC(=O)c1cc(F)c(NC2CCCCC2N)nc1Nc1cnnc(-c2ccccc2)c1 (stereo not shown) [Example 002-169]

>  <pIC50>
6.70 to 6.89

$$$$
>  <Compound>
NC(=O)c1cc(F)c(N[C@@H]2CCCC[C@@H]2N)nc1Nc1cncc(C2CC2)c1 (relative stereo) [Example 004-055]

>  <pIC50>
6.89 to 7.19

$$$$

Pending compound:
The compound Cc1cccc(Nc2nc(NC[C@H](C)N)c(F)cc2C(N)=O)c1 [Example 006-099] showed pIC50 equal to > 7.19

---

# Measured target: glutathione S-transferase (GST)-fused full-length human Syk protein (Homo sapiens)
# Construct: (GST)-fused full-length human Syk protein; GST (glutathione S-transferase); purchased Carna Biosciences
# Test protocol: Syk enzyme assay
# Type: biochemical
# Condition context: Syk enzyme assay, Test Example 1; read-out: IC50 of Syk-inhibitory activity
Listed below: IC50 values for each entry.

Recorded IC50, per entry:
>  <Molecule>
CCCC[C@@H](Nc1nc(Nc2ccc3c(cnn3CC)c2)c(C(N)=O)cc1F)[C@H](C)N

>  <IC50>
< 10 nM

$$$$
>  <Molecule>
CCn1nc(F)c2ccc(Nc3nc(NC4CCCCC4N)c(F)cc3C(N)=O)cc21 (stereo not shown)

>  <IC50>
< 10 nM

$$$$
>  <Molecule>
Cc1cc(Nc2nc(N[C@@H]3CCCC[C@@H]3N)c(F)cc2C(N)=O)cnc1-n1nccn1

>  <IC50>
10 to 50 nM

$$$$
>  <Molecule>
COCCn1cc2ccc(Nc3nc(NC4CCCCC4N)c(F)cc3C(N)=O)cc2n1 (stereo not shown)

>  <IC50>
10 to 50 nM

$$$$
>  <Molecule>
NC(=O)c1cc(F)c(NC2CCCCC2N)nc1Nc1ccnc(-c2cccc3cnccc23)c1 (stereo not shown)

>  <IC50>
50 to 100 nM

$$$$
>  <Molecule>
COc1cccc(-c2cc(Nc3nc(NC4CCCCC4N)c(F)cc3C(N)=O)ccn2)c1F (stereo not shown)

>  <IC50>
< 10 nM

$$$$
>  <Molecule>
CCOc1cc(Nc2nc(NC3CCCCC3N)c(F)cc2C(N)=O)ccn1 (stereo not shown)

>  <IC50>
< 10 nM

$$$$
>  <Molecule>
Cc1ccc(-c2cncc(Nc3nc(NC4CCCCC4N)c(F)cc3C(N)=O)c2)o1 (stereo not shown)

>  <IC50>
< 10 nM

$$$$
>  <Molecule>
C[C@H](N)[C@@H](CC1CC1)Nc1nc(Nc2cncc3ccccc23)c(C(N)=O)cc1F

>  <IC50>
< 10 nM

$$$$

The molecule Cc1cc2cc(Nc3nc(N[C@@H]4CCCC[C@@H]4N)c(F)cc3C(N)=O)ccc2[nH]1 (relative stereo) showed IC50 equal to < 10 nM
